- Test system: A498 renal
- experiment description: NCI tumour cell line growth inhibition, 48 h
Form field: TGI (one value per entry).

Check out these entries, answers already filled in.
>  <molecule>
CC(C)N(C(=O)C12C3C4C5C3C1(C(=O)N(C(C)C)C(C)C)C5(C#N)C42)C(C)C (stereo unspecified)

>  <target entity>
A498 renal

>  <result>
> 100 µM

$$$$
>  <molecule>
CN(CCC#N)c1ccc(/C=C(\C#N)c2cccc(C(F)(F)F)c2)cc1

>  <target entity>
A498 renal

>  <result>
8.89 µM

$$$$
>  <molecule>
O=C1c2ccccc2NC(c2cc(Cl)cc(Cl)c2O)N1CCc1ccccn1 (stereo unspecified)

>  <target entity>
A498 renal

>  <result>
> 100 µM

$$$$
>  <molecule>
CCN(CC)CCNc1ccc2ncn3c4c(OC)ccc(OC)c4c(=O)c1c23

>  <target entity>
A498 renal

>  <result>
> 100 µM

$$$$

Asked: Please look up its TGI: C[C@@H](C1CCC2C3C(=CC(=O)[C@@]21C)[C@H](C)[C@]1(CCC(=O)O1)C1OC31)[C@H]1C[C@]2(C)O[C@@](C)(O1)OC2(C)C (stereo partly specified)
Given back: > 100 µM

Asked: Please look up its TGI: O=C(CCN1CCOCC1)Nc1ccc(F)cc1F
Given back: > 100 µM

Asked: Please look up its TGI: COc1cc(/C=N/Nc2ncnc3c2cnn3C(C)C)ccc1O
Given back: 24.8 µM

Asked: Please look up its TGI: O=C1c2cccc3cc([N+](=O)[O-])cc(c23)C(=O)N1NC1=NCCN1
Given back: > 100 µM

Asked: Please look up its TGI: c1cc(-c2csc(-c3ccsc3)c2)cs1
Given back: > 100 µM

Asked: Please look up its TGI: FC(F)(F)c1nc2ccc(SSc3ccc4nc(C(F)(F)F)[nH]c4c3)cc2[nH]1
Given back: > 100 µM

Asked: Please look up its TGI: COc1cc(=O)oc(/C=C/C=O)c1C
Given back: > 100 µM

Asked: Please look up its TGI: COc1ccc(-c2cc(-c3ccccc3)n(C3OCC(OC(C)=O)C(OC(C)=O)C3OC(C)=O)c(=S)c2C#N)cc1 (stereo unspecified)
Given back: > 100 µM

Asked: Please look up its TGI: CC(C)(C)N/N=C(\Cc1occc(=O)c1O)C(=O)Nc1ccc([N+](=O)[O-])cc1[N+](=O)[O-]
Given back: > 100 µM

Asked: Please look up its TGI: NC(N)=NS(=O)(=O)c1ccc(Nc2c3ccccc3nc3c(C(=O)N4CCN(CCO)CC4)cccc23)cc1
Given back: > 100 µM

Asked: Please look up its TGI: Nc1ccc(-c2ncc3cc(-c4cccc(-c5cc6cnc(-c7ccc(N)cc7)nc6c6ccccc56)c4)c4ccccc4c3n2)cc1
Given back: > 100 µM

Asked: Please look up its TGI: Cc1cc(Cc2cc(C)c(O)c(C)c2)cc(C)c1O
Given back: 35.5 µM

Asked: Please look up its TGI: O=C(/C=C1\C(=O)N(Cc2ccc([N+](=O)[O-])cc2)c2ccccc21)c1ccc(OCCN2CCCCC2)cc1
Given back: 18 µM

Asked: Please look up its TGI: CCN(CC)c1ccc2c(c1)OC(=O)C(c1nnc(-c3ccc([N+](=O)[O-])cc3)o1)C2 (stereo unspecified)
Given back: > 100 µM

Asked: Please look up its TGI: CC1=CC[C@@H]2C(C)(C)C(=O)CC[C@@]2(C)[C@@H]1COc1ccc2ccc(=O)oc2c1
Given back: > 100 µM

Asked: Please look up its TGI: O=S1(=O)NNC(=NCc2ccc(Cl)c(Cl)c2)c2ccccc21
Given back: > 100 µM

Asked: Please look up its TGI: NC(=O)c1cc(-c2ccncc2)cc(-c2ccccc2)c1N
Given back: 21.9 µM
